- test.target: Mu-type opioid receptor (Cavia porcellus) (UniProt P97266)
- Sequence (P97266 whole entry): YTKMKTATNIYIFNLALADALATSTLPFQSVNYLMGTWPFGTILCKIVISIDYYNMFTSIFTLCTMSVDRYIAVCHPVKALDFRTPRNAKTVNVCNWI
- run.description: Inhibition of morphine binding to Opioid receptor mu 1 of guinea pig ileal longitudinal muscle
assay.endpoint: IC50 ratio
Respond numerically, and do not add a unit to the figure.

Check out these entries, answers already filled in.
molecule	readout.value
COC(=O)c1ccc(/C=C2/C[C@@]3(O)C4Cc5ccc(O)c6c5C3(CCN4CC3CC3)[C@@H](O6)C2=O)cc1 (stereo partly drawn)	3.81
O=C1/C(=C\c2ccc([N+](=O)[O-])cc2)C[C@@]2(O)C3Cc4ccc(O)c5c4C2(CCN3CC2CC2)[C@H]1O5 (stereo partly drawn)	4.42
O=C1/C(=C\c2ccc(F)cc2)C[C@@]2(O)C3Cc4ccc(O)c5c4C2(CCN3CC2CC2)[C@H]1O5 (stereo partly drawn)	2.23

In: GET /values?readout=IC50 ratio&item= O=C1/C(=C\c2ccccc2)C[C@@]2(O)[C@H]3Cc4ccc(O)c5c4[C@@]2(CCN3CC2CC2)[C@H]1O5
Out: 13.1
